System: LXRa:RXRa (NR concentration 270 nM, RXRa partner concentration 90 nM)
Assay: PBM binding z-score (relative to random genomic background probes); higher = stronger binding; sequences stand for … in GC…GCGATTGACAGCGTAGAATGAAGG
The sequences listed here are annotated with their PBM binding z-score.
Note: the reply should be a number with no unit written.

The following sequences have reported results that may help.
[
  {
    "Ordered Residues": "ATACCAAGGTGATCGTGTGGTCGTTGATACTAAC",
    "Measurement": 0.0735
  },
  {
    "Ordered Residues": "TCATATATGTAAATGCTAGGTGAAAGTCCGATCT",
    "Measurement": 0.5
  },
  {
    "Ordered Residues": "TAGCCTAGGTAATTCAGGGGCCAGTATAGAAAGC",
    "Measurement": -0.444
  },
  {
    "Ordered Residues": "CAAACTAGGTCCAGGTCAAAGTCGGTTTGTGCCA",
    "Measurement": 2.36
  },
  {
    "Ordered Residues": "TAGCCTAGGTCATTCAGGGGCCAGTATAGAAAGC",
    "Measurement": 3.73
  }
]

Kindly state the measured PBM binding z-score obtained for `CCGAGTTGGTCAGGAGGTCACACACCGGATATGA` with LXRa:RXRa (NR concentration 270 nM, RXRa partner concentration 90 nM). 3.18

* * *

Tested on: FXR:RXRa (NR concentration 270 nM, RXRa partner concentration 90 nM)
Experiment: PBM binding z-score (relative to random genomic background probes); higher = stronger binding; sequences stand for … in GC…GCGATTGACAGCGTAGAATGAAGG
Reported values of PBM binding z-score for individual entries

[
  {
    "Ordered Residues": "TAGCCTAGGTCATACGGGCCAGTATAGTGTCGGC",
    "Test Target": "FXR:RXRa (NR concentration 270 nM, RXRa partner concentration 90 nM)",
    "PBM binding z-score": 4.14
  }
]

For the sequence shown here, `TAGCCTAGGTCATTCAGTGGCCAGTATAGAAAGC` , give the reported PBM binding z-score. 4.21

Another sequence to check: `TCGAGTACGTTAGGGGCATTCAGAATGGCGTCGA` -0.212

Again, but for `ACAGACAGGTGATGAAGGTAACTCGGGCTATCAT` -0.17

Try this sequence too: `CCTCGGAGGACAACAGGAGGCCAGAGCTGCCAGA` -0.418

Record: `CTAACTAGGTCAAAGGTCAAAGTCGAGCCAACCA` 8.53

Repeat for the following sequence: `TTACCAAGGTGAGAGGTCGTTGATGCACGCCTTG` 1.86

Then this sequence: `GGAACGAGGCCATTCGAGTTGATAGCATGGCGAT` 0.572

Would you mind doing `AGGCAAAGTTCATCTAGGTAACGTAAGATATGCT` as well? 6.62

Now consider `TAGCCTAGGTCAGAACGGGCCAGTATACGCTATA` and answer again. 1.13

* * *

Test system: LXRa homodimer (NR concentration 270 nM)
Experiment: PBM binding z-score (relative to random genomic background probes); higher = stronger binding; sequences stand for … in GC…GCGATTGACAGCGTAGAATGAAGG
Classes by PBM binding z-score: interval 1 = under 0.2, interval 2 = from 0.2 up to 0.9, interval 3 = 0.9 and over

// below: answered sequences
[
  {
    "Ordered Residues": "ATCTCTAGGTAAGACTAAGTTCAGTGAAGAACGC",
    "Assigned Category": "interval 2"
  },
  {
    "Ordered Residues": "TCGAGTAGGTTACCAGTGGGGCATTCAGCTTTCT",
    "Assigned Category": "interval 1"
  },
  {
    "Ordered Residues": "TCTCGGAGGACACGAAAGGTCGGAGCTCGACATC",
    "Assigned Category": "interval 1"
  }
]

Into which category would you place `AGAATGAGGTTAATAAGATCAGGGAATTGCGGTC` ? interval 2

Moving on to `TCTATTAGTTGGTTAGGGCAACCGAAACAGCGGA` interval 2

* * *

Measured PBM binding z-score of individual entries
Tested on: RXRa homodimer (NR concentration 180 nM)
Experiment: PBM binding z-score (relative to random genomic background probes); higher = stronger binding; sequences stand for … in GC…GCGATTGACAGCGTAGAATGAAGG
Please state the value as a number alone, without comment.

Before answering, review these 8 worked examples.
[
  {
    "Ordered Residues": "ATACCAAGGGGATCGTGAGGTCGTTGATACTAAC",
    "Test Target": "RXRa homodimer (NR concentration 180 nM)",
    "Measurement": 0.933
  },
  {
    "Ordered Residues": "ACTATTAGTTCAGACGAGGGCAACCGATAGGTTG",
    "Test Target": "RXRa homodimer (NR concentration 180 nM)",
    "Measurement": 0.943
  },
  {
    "Ordered Residues": "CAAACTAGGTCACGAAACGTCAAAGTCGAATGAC",
    "Test Target": "RXRa homodimer (NR concentration 180 nM)",
    "Measurement": 3.8
  },
  {
    "Ordered Residues": "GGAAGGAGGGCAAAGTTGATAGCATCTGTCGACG",
    "Test Target": "RXRa homodimer (NR concentration 180 nM)",
    "Measurement": 1.89
  },
  {
    "Ordered Residues": "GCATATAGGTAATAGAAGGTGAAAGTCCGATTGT",
    "Test Target": "RXRa homodimer (NR concentration 180 nM)",
    "Measurement": 0.618
  },
  {
    "Ordered Residues": "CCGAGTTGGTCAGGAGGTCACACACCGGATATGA",
    "Test Target": "RXRa homodimer (NR concentration 180 nM)",
    "Measurement": 4.96
  },
  {
    "Ordered Residues": "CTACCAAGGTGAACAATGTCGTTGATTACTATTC",
    "Test Target": "RXRa homodimer (NR concentration 180 nM)",
    "Measurement": 0.563
  },
  {
    "Ordered Residues": "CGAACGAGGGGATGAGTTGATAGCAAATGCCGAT",
    "Test Target": "RXRa homodimer (NR concentration 180 nM)",
    "Measurement": 0.0402
  }
]

Sample `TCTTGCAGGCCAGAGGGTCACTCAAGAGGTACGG` — what was its PBM binding z-score? 2.37

Try this sequence too: `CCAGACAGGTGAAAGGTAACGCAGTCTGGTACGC` 2.42

* * *

System: RARa homodimer (NR concentration 270 nM)
Experiment: PBM binding z-score (relative to random genomic background probes); higher = stronger binding; sequences stand for … in GC…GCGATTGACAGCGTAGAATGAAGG
Entries and their measured PBM binding z-score follow.
Respond with the number and no other words.

Below, 6 sequences whose answers are already recorded.
[
  {
    "Ordered Residues": "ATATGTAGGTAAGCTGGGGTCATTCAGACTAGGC",
    "Measurement": 0.719
  },
  {
    "Ordered Residues": "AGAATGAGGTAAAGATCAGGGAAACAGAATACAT",
    "Measurement": 0.446
  },
  {
    "Ordered Residues": "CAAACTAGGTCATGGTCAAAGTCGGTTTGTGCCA",
    "Measurement": 0.58
  },
  {
    "Ordered Residues": "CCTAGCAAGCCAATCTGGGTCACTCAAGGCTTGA",
    "Measurement": -0.371
  },
  {
    "Ordered Residues": "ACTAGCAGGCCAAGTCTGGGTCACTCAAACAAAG",
    "Measurement": -0.573
  },
  {
    "Ordered Residues": "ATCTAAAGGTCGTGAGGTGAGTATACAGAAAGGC",
    "Measurement": 1.13
  }
]

Now take the following sequence into account.
State its PBM binding z-score on RARa homodimer (NR concentration 270 nM): `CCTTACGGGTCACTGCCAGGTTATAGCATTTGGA` 0.61

* * *

Test system: PPARg:RXRa DBDmut IVT, anti-RXR (DBD mutation: RXRa K156A/R161A, NR concentration 270 nM, RXRa partner concentration 90 nM)
Assay: PBM binding z-score (relative to random genomic background probes); higher = stronger binding; sequences stand for … in GC…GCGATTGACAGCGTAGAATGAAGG
Measured Property: PBM binding z-score
API doc: respond with a numeric literal and nothing else, no unit.

[
  {
    "Ordered Residues": "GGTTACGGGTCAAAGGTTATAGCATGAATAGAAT",
    "Measurement": 3.06
  },
  {
    "Ordered Residues": "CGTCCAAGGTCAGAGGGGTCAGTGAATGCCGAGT",
    "Measurement": 2.84
  },
  {
    "Ordered Residues": "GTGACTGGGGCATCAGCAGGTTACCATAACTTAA",
    "Measurement": 4.3
  },
  {
    "Ordered Residues": "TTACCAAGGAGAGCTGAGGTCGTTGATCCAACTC",
    "Measurement": -0.667
  },
  {
    "Ordered Residues": "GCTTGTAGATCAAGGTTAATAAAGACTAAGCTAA",
    "Measurement": 1.14
  }
]

Query: PBM binding z-score; subject: `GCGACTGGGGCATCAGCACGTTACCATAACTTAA` 3.89
